- TARGET_OR_TEST_SYSTEM: Mitogen-activated protein kinase 14 (Homo sapiens, UniProt Q16539)
- Sequence (Q16539 whole entry): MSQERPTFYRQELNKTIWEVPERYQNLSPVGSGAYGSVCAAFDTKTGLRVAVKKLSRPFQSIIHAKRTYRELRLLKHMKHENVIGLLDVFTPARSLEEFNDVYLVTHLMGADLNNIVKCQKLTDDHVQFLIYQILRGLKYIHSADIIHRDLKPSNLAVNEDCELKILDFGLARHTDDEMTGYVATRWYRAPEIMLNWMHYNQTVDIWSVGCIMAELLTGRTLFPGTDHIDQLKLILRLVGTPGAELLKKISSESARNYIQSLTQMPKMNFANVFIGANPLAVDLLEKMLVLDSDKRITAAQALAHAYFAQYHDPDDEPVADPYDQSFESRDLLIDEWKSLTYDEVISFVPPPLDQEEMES
- MEASUREMENT_PROTOCOL: Inhibition of unactive p38alpha
QUANTITY_KIND: IC50
Please state the value followed by its unit.

What reported IC50 corresponds to `CC(=O)NC1(C(=O)NCc2cccc(-n3nc(C(C)(C)C)cc3NC(=O)Nc3ccccc3)c2)CCCC1` on Mitogen-activated protein kinase 14 (Homo sapiens, UniProt Q16539)?
715 nM

What reported IC50 corresponds to `CC(C)(C)c1cc(NC(=O)Nc2ccccc2)n(-c2cccc(CNC(=O)CCC(=O)O)c2)n1` on Mitogen-activated protein kinase 14 (Homo sapiens, UniProt Q16539)?
37 nM

What reported IC50 corresponds to CC(=O)NC(C)C(=O)NCc1cccc(-n2nc(C(C)(C)C)cc2NC(=O)Nc2ccccc2)c1 (centres undefined) on Mitogen-activated protein kinase 14 (Homo sapiens, UniProt Q16539)?
168 nM

What reported IC50 corresponds to `CC(C)(C)c1cc(NC(=O)Nc2cccc3ccccc23)n(-c2cccc(CNC(=O)CCC(=O)O)c2)n1` on Mitogen-activated protein kinase 14 (Homo sapiens, UniProt Q16539)?
5 nM

What reported IC50 corresponds to `CC(C)(C)c1cc(NC(=O)Nc2ccccc2)n(-c2cccc(CNC(=O)CNC(=O)c3ccco3)c2)n1` on Mitogen-activated protein kinase 14 (Homo sapiens, UniProt Q16539)?
18 nM

What reported IC50 corresponds to `CC(C)(C)c1cc(NC(=O)Nc2ccccc2)n(-c2cccc(CNC(=O)CNC=O)c2)n1` on Mitogen-activated protein kinase 14 (Homo sapiens, UniProt Q16539)?
68 nM

What reported IC50 corresponds to `CC(C)(C)c1cc(NC(=O)Nc2ccccc2)n(-c2cccc(CNC(=O)Cn3ccnc3)c2)n1` on Mitogen-activated protein kinase 14 (Homo sapiens, UniProt Q16539)?
231 nM

What reported IC50 corresponds to `CC(C)(C)c1cc(NC(=O)Nc2ccccc2)n(-c2cccc(CNC(=O)CNC(=O)c3ccccc3)c2)n1` on Mitogen-activated protein kinase 14 (Homo sapiens, UniProt Q16539)?
169 nM

What reported IC50 corresponds to CC(C)(C)c1cc(NC(=O)Nc2ccccc2)n(-c2cccc(CNC(=O)C3CC=CC[C@H]3C(=O)O)c2)n1 (some centres undefined) on Mitogen-activated protein kinase 14 (Homo sapiens, UniProt Q16539)?
14 nM

What reported IC50 corresponds to `COC(=O)NCC(=O)NCc1cccc(-n2nc(C(C)(C)C)cc2NC(=O)Nc2ccccc2)c1` on Mitogen-activated protein kinase 14 (Homo sapiens, UniProt Q16539)?
176 nM

What reported IC50 corresponds to `CC(C)(C)c1cc(NC(=O)Nc2ccccc2)n(-c2cccc(CNC(=O)Cn3cccn3)c2)n1` on Mitogen-activated protein kinase 14 (Homo sapiens, UniProt Q16539)?
48.8 nM

What reported IC50 corresponds to CC(C)(C)c1cc(NC(=O)Nc2ccccc2)n(-c2cccc(CNC(=O)C3C[C@H]3C(=O)O)c2)n1 (some centres undefined) on Mitogen-activated protein kinase 14 (Homo sapiens, UniProt Q16539)?
30 nM

What reported IC50 corresponds to `CC(C)(C)c1cc(NC(=O)Nc2ccccc2)n(-c2cccc(CNC(=O)CN3CCCC3=O)c2)n1` on Mitogen-activated protein kinase 14 (Homo sapiens, UniProt Q16539)?
68 nM

What reported IC50 corresponds to `CC(=O)NCC(=O)NCc1cccc(-n2nc(C(C)(C)C)cc2NC(=O)Nc2ccccc2)c1` on Mitogen-activated protein kinase 14 (Homo sapiens, UniProt Q16539)?
6 nM

What reported IC50 corresponds to `CC(C)(C)c1cc(NC(=O)Nc2ccccc2)n(-c2cccc(CNC(=O)CN)c2)n1` on Mitogen-activated protein kinase 14 (Homo sapiens, UniProt Q16539)?
176 nM

What reported IC50 corresponds to `Cc1ccn(CC(=O)NCc2cccc(-n3nc(C(C)(C)C)cc3NC(=O)Nc3ccccc3)c2)n1` on Mitogen-activated protein kinase 14 (Homo sapiens, UniProt Q16539)?
27.9 nM

What reported IC50 corresponds to `CC(C)(CC(=O)NCc1cccc(-n2nc(C(C)(C)C)cc2NC(=O)Nc2ccccc2)c1)C(=O)O` on Mitogen-activated protein kinase 14 (Homo sapiens, UniProt Q16539)?
39 nM

What reported IC50 corresponds to `CC(=O)NCC(=O)N(C)Cc1cccc(-n2nc(C(C)(C)C)cc2NC(=O)Nc2ccccc2)c1` on Mitogen-activated protein kinase 14 (Homo sapiens, UniProt Q16539)?
211 nM

What reported IC50 corresponds to `CC(C)(C)c1cc(NC(=O)Nc2ccccc2)n(-c2cccc(CN)c2)n1` on Mitogen-activated protein kinase 14 (Homo sapiens, UniProt Q16539)?
2850 nM
